Test system: EGFR(L747-E749del, A750P);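 also: KINOMEscan scanMAX binding as percent activity remaining versus control; lower means stronger binding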
Test Conditions: Compound Concentration (nM):1000
Result Type: Percent Control (%)
Answers are plain numbers, in %.

> print(dat)
                                    compound               study.target      result.type  reported.measurement
 1  COc1ccc(COc2ccc(Cc3cnc(N)nc3N)cc2OC)cc1 [GW632580X]  EGFR(L747-E749del, A750P)  Percent Control                   100
 2  COc1cc(/C=N/Nc2ncnc3[nH]ncc23)ccc1O [GW578748X]  EGFR(L747-E749del, A750P)  Percent Control                    78
 3  Cl.O=C(Nc1ccc(Oc2ccc3[nH]c(NC(=O)c4ccco4)nc3c2)cc1)Nc1cc(C(F)(F)F)ccc1F [GW683134A]  EGFR(L747-E749del, A750P)  Percent Control                    69
 4  CCc1ccc(Oc2nccc(-c3c(-c4ccc(F)cc4)ncn3C3CCNCC3)n2)cc1  EGFR(L747-E749del, A750P)  Percent Control                    48
 5  COc1cc2ncnc(Nc3ccc4c(cnn4Cc4ccccc4)c3)c2cc1OC.Cl [GW282449A]  EGFR(L747-E749del, A750P)  Percent Control                    11
 6  O=C(Nc1n[nH]c2nc(-c3ccc(O)cc3)c(Br)cc12)C1CC1  EGFR(L747-E749del, A750P)  Percent Control                    76
 7  CCS(=O)(=O)c1ccc(OC)c(Nc2ncc(-c3cccc(OC)c3)o2)c1 [GW580509X]  EGFR(L747-E749del, A750P)  Percent Control                    65
 8  COC(=O)Nc1nc2ccc(Oc3ccc(NC(=O)Nc4cc(C(F)(F)F)ccc4F)cc3)cc2s1.Cl [GW693917A]  EGFR(L747-E749del, A750P)  Percent Control                    86
 9  CC1=C(C(=O)Nc2ccc3[nH]ncc3c2)C(c2ccc(Cl)c(Cl)c2)CC(=O)N1 (stereo not drawn) [GSK299115A]  EGFR(L747-E749del, A750P)  Percent Control                   100
10  Cl.O=C(Nc1ccc(Oc2ccc3[nH]c(NC(=O)c4ccccc4)nc3c2)cc1)Nc1cc(C(F)(F)F)ccc1F [GW709042A]  EGFR(L747-E749del, A750P)  Percent Control                   100

Dear reader, for each entry below, please note its Percent Control.
1. CN(C)CCNC(=O)Nc1ccc(N(C)c2ccnc(Nc3ccc(CS(C)(=O)=O)cc3)n2)cc1.Cl [GW830900A]
2. C[C@@H](Oc1cc(-n2cnc3ccc(OC4CCN(C)CC4)cc32)sc1C(N)=O)c1ccccc1Cl [GSK579289A]
3. CC1=C(C(=O)Nc2ccc3[nH]ncc3c2)C(c2ccc3ccccc3c2)CC(=O)N1 (stereo not drawn) [GSK270822A]
4. COc1cc(C=NNc2ncnc3c2cnn3-c2ccccc2)ccc1O [GW513184X]
5. COc1cc(C)c(N(C)C(=O)CN(C)C)cc1Nc1nc(Nc2cccc(F)c2C(N)=O)c2cc[nH]c2n1

Response:
73
58
100
46
98
